Test system: NGF
Assay: Promoting effects on synthesis and secretion of NGF in glia cells (C6 glioma), enzyme immuno assay
Type: cell-based
Conditions: 3 × 10^-6 M, 24 hours, read-out: Promoting Activity (%) of NGF synthesis and secretion (relative to control = 100)
recordedMetric: activity at 3 µM (%)

compound="CCCn1c(=O)c(-c2ccccc2)c2n(c1=O)CCCS2 [Example 1]" recordedmeasurement=168
compound="CCCn1c(=O)c(-c2ccccc2)c2n(c1=O)CCCS2(=O)=O [Example 58]" recordedmeasurement=164
compound="CCCn1c(=O)c(-c2ccccc2)c2n(c1=O)CCS2(=O)=O [Example 61]" recordedmeasurement=177
compound="O=c1c(-c2ccccc2)c2n(c(=O)n1Cc1ccccc1)CCCS2 [Example 36]" recordedmeasurement=240
compound="O=c1c(-c2ccccc2)c2n(c(=O)n1Cc1ccccc1)CC=CS2 [Example 129]" recordedmeasurement=197
